system: C. albicans 967374; assay: Checkerboard broth microdilution (CLSI); format: cell-based; conditions: Candida albicans, single agent; isolate 967374; read-out: MIC

[
  {
    "compound": "CC(=O)N1CCN(c2ccc(OCC3COC(Cn4ccnc4)(c4ccc(Cl)cc4Cl)O3)cc2)CC1 (centres unmarked) [Ketoconazole, ketoconazole]",
    "MIC [µg/mL]": 0.25
  },
  {
    "compound": "C[C@@H]1[C@H](O)[C@@H](C)/C=C/C=C/C=C/C=C/C=C/C=C/C=C/[C@H](O[C@@H]2O[C@H](C)[C@@H](O)[C@H](N)[C@@H]2O)C[C@@H]2O[C@](O)(C[C@@H](O)C[C@@H](O)[C@H](O)CC[C@@H](O)C[C@@H](O)CC(=O)O[C@H]1C)C[C@H](O)[C@H]2C(=O)O [AmB, Amphotericin B]",
    "MIC [µg/mL]": 0.5
  },
  {
    "compound": "OC(Cn1cncn1)(Cn1cncn1)c1ccc(F)cc1F [Fluconazole, fluconazole]",
    "MIC [µg/mL]": 16
  },
  {
    "compound": "C[C@@H]1[C@H](O)[C@@H](C)/C=C/C=C/C=C/C=C/C=C/C=C/C=C/[C@H](OC2O[C@H](C)[C@@H](O)[C@H](N)[C@H]2O)CC2O[C@](O)(C[C@@H](O)C[C@@H](O)[C@H](O)CC[C@@H](O)C[C@@H](O)CC(=O)O[C@H]1C)C[C@H](O)[C@H]2C(=O)O (stereo partly drawn) [C2′epiAmB, C2′epi amphotericin B]",
    "MIC [µg/mL]": 2
  },
  {
    "compound": "C[C@@H](c1ncncc1F)[C@](O)(Cn1cncn1)c1ccc(F)cc1F [Voriconazole, voriconazole]",
    "MIC [µg/mL]": 0.25
  }
]

Data credit: patent US20220370486A1
